# TESTED_SYSTEM: T1, NRP2:Fc-HRS(2-60) interaction (Homo sapiens, UniProt O60462)
# T1 construct: Fc (C); purchased R&D Systems 2215-N2
# T1 sequence (O60462 23-864 limits assumed): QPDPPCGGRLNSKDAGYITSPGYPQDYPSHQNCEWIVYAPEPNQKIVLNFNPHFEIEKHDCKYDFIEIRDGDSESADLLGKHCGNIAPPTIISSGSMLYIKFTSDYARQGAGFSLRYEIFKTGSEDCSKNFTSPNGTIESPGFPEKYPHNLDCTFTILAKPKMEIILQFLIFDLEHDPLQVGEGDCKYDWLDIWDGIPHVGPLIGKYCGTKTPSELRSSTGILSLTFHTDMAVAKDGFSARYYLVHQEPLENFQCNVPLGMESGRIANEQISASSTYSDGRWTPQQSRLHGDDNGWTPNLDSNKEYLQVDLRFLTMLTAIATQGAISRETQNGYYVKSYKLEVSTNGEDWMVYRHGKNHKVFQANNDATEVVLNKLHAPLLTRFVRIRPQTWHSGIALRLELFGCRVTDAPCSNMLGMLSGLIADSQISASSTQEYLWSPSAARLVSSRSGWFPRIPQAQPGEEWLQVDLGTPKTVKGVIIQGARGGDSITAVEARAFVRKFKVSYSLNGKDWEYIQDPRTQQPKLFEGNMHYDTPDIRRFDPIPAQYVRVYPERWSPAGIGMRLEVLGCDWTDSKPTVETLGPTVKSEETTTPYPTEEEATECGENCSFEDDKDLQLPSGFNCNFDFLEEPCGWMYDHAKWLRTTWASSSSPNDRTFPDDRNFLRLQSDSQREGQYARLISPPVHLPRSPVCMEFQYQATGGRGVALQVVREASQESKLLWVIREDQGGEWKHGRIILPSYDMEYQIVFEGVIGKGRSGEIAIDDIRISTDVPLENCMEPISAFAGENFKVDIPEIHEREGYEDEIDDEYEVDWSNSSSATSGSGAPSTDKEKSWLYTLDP
# EXPERIMENT_NOTES: SPR competition of known NRP2 ligands with the NRP2:Fc-HRS(2-60) interaction
# Type: binding
# SETTINGS: SPR, NRP2 binding to immobilized Fc-HRS(2-60) in presence of ligand
QUANTITY_MEASURED: Competes with Fc-HRS(2-60) for NRP2 binding

MOLECULE	RESULT
PlGf-2/Heparin (protein) LPAVPPQQWALSAGNGSSEVEVVPFQEVWGRSYCRALERLVDVVSEYPSEVEHMFSPSCVSLLRCTGCCGDENLHCVPVETANVTMQLLKIRSGDRPSYVELTFSQHVRCECRPLREKMKPERRRPKGRGKRRREKQRPTDCHLCGDAVPRR	Yes
VEGF-C: commercial NRP2 ligand protein (R&D Systems) (protein) TEETIKFAAAHYNTEILKSIDNEWRKTQCMPREVCIDVGKEFGVATNTFFKPPCVSVYRCGGCCNSEGLQCMNTSTSYLSKTLFEITVPLSQGPKPVTISFANHTSCRCMSKLDVYRQVHSIIRR	Yes
VEGF-A121: commercial protein (Peprotech #100-20A) (protein) APMAEGGGQNHHEVVKFMDVYQRSYCHPIETLVDIFQEYPDEIEYIFKPSCVPLMRCGGCCNDEGLECVPTEESNITMQIMRIKPHQGQHIGEMSFLQHNKCECRPKKDRARQEKCDKPRR	No
VEGF-A145: commercial protein (R&D Systems #7626-VE-CF) (protein) APMAEGGGQNHHEVVKFMDVYQRSYCHPIETLVDIFQEYPDEIEYIFKPSCVPLMRCGGCCNDEGLECVPTEESNITMQIMRIKPHQGQHIGEMSFLQHNKCECRPKKDRARQEKKSVRGKGKGQKRKRKKSRYKSWSVCDKPRR	No

Values compiled from patent US20230039401A1.
